Assay: NCI Yeast Anticancer Drug Screen. Data for the bub3 strain (AID 167)
Settings: S. cerevisiae bub3 mutant strain, at 5.0 µM (retest, dose inferred, filed as 0.5)
Compounds without any hit were thinned out: in the full panel of roughly 79,000, 15% have a hit. Activity calls are given as the source filed them. No stated cut-off is given here; in the data, active means growth inhibition above about 70%; inactive means the rest.
Classes used: y (active), n (inactive)

- O=C(Nc1cc(Cl)ccc1Cl)Nc1ccc(Cl)cc1C(=O)c1ccccc1: y
- CC(=O)O[C@@H]1c2c(c3c(=O)c4cccc(O)c4c(=O)c=3c2=[N+]=[N-])[C@H](OC(C)=O)[C@@H](OC(C)=O)[C@]1(C)O: y
- CC(=O)OCC1OC(n2cnc3c(Cl)nc(Cl)nc32)C(OC(C)=O)C1OC(C)=O (stereo unspecified): n
- CCCN(CCC)Cc1cc2c(cc1O)CC[C@@H]1[C@@H]2CC[C@]2(C)C(=O)CC[C@@H]12: y
- COc1cccc2c1N[S@](=O)S2: n
- S=C(SSSSC(=S)N1CCCCC1)N1CCCCC1: n
